- Experimental target: long isoform of human D2 receptor (Homo sapiens)
- Method: cAMP HTRF Agonist Assay (DRD2L PathHunter CHO-K1 cells, forskolin-stimulated)
- Setup conditions: CHO-K1, read-out: cAMP (agonist mode) Emax
Reported Emax values follow for various molecules

CCC(=O)Nc1cccc(OCCCCN2CCc3ccccc3C2)n1 [Compound 41] :: < 10%

So what's the measured Emax for this one? Oc1cccc2ccc(OCCCCN3CCc4ccccc4C3)nc12 [Compound 12]
< 10%

So what's the measured Emax for this one? Clc1ccccc1N1CCN(CCCCOc2cccc(-c3cc[nH]n3)n2)CC1 [Compound 50]
50 to 75%

So what's the measured Emax for this one? COc1cccnc1N1CCN(CCCCOc2ccc3cccc(O)c3n2)CC1 [Compound 9]
25 to 50%

So what's the measured Emax for this one? N#Cc1cccc2c1CN(CCCCOc1ccc3ccc(=O)[nH]c3n1)CC2 [Compound 64]
25 to 50%

So what's the measured Emax for this one? N#Cc1cccnc1N1CCN(CCCCOc2cccc(-c3cc[nH]n3)n2)CC1 [Compound 48]
> 75%

So what's the measured Emax for this one? Cc1cccc(N2CCN(CCCCOc3ccc4cn[nH]c4c3)CC2)c1C [Compound 95]
10 to 25%

So what's the measured Emax for this one? O=C1CCc2ccc(OCCCCN3CCc4ccsc4C3)nc2N1 [Compound 70]
< 10%

So what's the measured Emax for this one? O=c1ccc2ccc(OCCCCN3CCc4c(Cl)cccc4C3)nc2[nH]1 [Compound 60]
> 75%

###

- Experimental target: long isoform of human D2 receptor (Homo sapiens, UniProt P14416)
- Sequence (P14416 whole entry, canonical isoform): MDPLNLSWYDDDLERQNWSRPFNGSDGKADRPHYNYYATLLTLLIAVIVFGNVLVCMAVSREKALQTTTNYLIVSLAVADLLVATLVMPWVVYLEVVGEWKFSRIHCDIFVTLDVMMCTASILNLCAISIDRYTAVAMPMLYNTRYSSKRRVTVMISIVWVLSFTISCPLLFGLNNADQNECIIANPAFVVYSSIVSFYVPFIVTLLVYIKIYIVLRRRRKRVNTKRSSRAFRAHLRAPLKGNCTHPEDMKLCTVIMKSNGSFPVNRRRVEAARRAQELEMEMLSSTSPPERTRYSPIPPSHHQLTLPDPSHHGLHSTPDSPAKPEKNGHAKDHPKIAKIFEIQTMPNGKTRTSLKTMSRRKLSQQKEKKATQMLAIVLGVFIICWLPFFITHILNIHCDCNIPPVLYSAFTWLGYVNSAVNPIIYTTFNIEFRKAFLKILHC
- Method: Arrestin Antagonist Assay (DRD2L PathHunter CHO-K1 cells, vs EC80 dopamine)
pIC50: −log10 of the molar value.
Quantity measured: pIC50

Completed entries (count: 8):
O=c1ccc2ccc(OCCCCN3CCc4ccccc4C3)nc2[nH]1 [Compound 52] :: 7.00 to 8.00
O=C1CCc2ccc(OCCCCN3CCc4ncncc4C3)cc2N1 [Compound 23] :: 5.00 to 6.00
O=C1CCc2ccc(OCCCCN3CCc4ccsc4C3)cc2N1 [Compound 28] :: 6.00 to 7.00
COc1ccc2c(c1)CCN(CCCCOc1ccc3cccc(O)c3n1)C2 [Compound 13] :: 5.00 to 6.00
O=C1NCCc2ccc(OCCCCN3CCc4ccccc4C3)nc2N1 [Compound 83] :: 7.00 to 8.00
Oc1cccc2ccc(OCCCCN3CCc4cc(Cl)ccc4C3)nc12 [Compound 14] :: 5.00 to 6.00
COc1cccnc1N1CCN(CCCCOc2ccc3cn[nH]c3c2)CC1 [Compound 99] :: 7.00 to 8.00
Oc1cccc2ccc(OCCCCN3CCN(c4cccc5ccccc45)CC3)nc12 [Compound 6] :: 6.00 to 7.00

Could you now consider this next compound?
So what's the measured pIC50 for this one? CCn1cc2c(n1)CCN(CCCCOc1ccc3c(c1)NC(=O)CC3)C2 [Compound 34]
< 5.00

###

- Experimental target: long isoform of human D2 receptor (Homo sapiens)
- Method: Arrestin Antagonist Assay (DRD2L PathHunter CHO-K1 cells, vs EC80 dopamine)
pIC50: −log10 of the molar value.
Reported pIC50 values follow for various compounds

So what's the measured pIC50 for this one? Clc1ccccc1N1CCN(CCCCOc2ccc3cn[nH]c3c2)CC1
7.00 to 8.00

So what's the measured pIC50 for this one? N#Cc1cccc2c1CN(CCCCOc1ccc3ccc(=O)[nH]c3n1)CC2
7.00 to 8.00

So what's the measured pIC50 for this one? N#Cc1cccc2c1CN(CCCCOc1ccc3c(n1)NC(=O)CC3)CC2
6.00 to 7.00
